TESTED ON: T1, human TGFβ2 (human, UniProt P61812 303-414)
T1 construct: also called TGFβ2 homodimer
T1 sequence: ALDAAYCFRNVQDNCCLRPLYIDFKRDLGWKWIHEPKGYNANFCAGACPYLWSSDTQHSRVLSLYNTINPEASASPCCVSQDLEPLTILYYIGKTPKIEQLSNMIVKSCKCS
EXPERIMENT: Biacore off-rate vs wt GC1008, 50 nM
METRIC NAME: kd var/kd wt
Note: the reply should be a number with no unit written.

BINDER	kd var/kd wt
S31Q (antibody, V domains shown, GC1008 IgG4 variant) VH: QVQLVQSGAEVKKPGSSVKVSCKASGYTFSQNVISWVRQAPGQGLEWMGGVIPIVDIANYAQRFKGRVTITADESTSTTYMELSSLRSEDTAVYYCASTLGLVLDAMDYWGQGTLVTVSS VL: ETVLTQSPGTLSLSPGERATLSCRASQSLGSSYLAWYQQKPGQAPRLLIYGASSRAPGIPDRFSGSGSGTDFTLTISRLEPEDFAVYYCQQYADSPITFGQGTRLEIK	1

Query N32R (antibody, V domains shown, GC1008 IgG4 variant) VH: QVQLVQSGAEVKKPGSSVKVSCKASGYTFSSRVISWVRQAPGQGLEWMGGVIPIVDIANYAQRFKGRVTITADESTSTTYMELSSLRSEDTAVYYCASTLGLVLDAMDYWGQGTLVTVSS VL: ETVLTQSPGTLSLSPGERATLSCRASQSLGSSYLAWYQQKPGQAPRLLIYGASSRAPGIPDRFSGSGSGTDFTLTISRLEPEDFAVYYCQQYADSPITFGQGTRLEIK yields kd var/kd wt of 1.2

Query Y27I (antibody, V domains shown, GC1008 IgG4 variant) VH: QVQLVQSGAEVKKPGSSVKVSCKASGITFSSNVISWVRQAPGQGLEWMGGVIPIVDIANYAQRFKGRVTITADESTSTTYMELSSLRSEDTAVYYCASTLGLVLDAMDYWGQGTLVTVSS VL: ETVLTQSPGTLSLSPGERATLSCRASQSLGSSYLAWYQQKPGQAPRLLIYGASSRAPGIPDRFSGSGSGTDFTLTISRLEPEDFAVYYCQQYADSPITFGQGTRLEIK yields kd var/kd wt of 1.3
